- System: SW-620 colon
- Assay: NCI tumour cell line growth inhibition, 48 h; in the data active = GI50 below about 0.43 µM; inactive = the rest
I would appreciate it if you answered using one of these outcomes: Yes for active, No for inactive

Known results for molecules:
Cc1cccc(Cl)c1NC(=O)c1cnc(Nc2cc(N3CCOCC3)cc(N3CCOCC3)c2)s1 :: No
CCCCOC(=O)c1ccc(NC(=O)CCl)cc1 :: No
COc1ccc2c(c1)CCc1[nH]nc(-c3cc(OC)c(OC)c(OC)c3)c1-2 :: Yes
CC1(C)N=C(N)N=C(N)N1c1ccc(CCc2ccc(Cl)cc2S(=O)(=O)F)c(Cl)c1 :: No
CC(C)[NH-].CC(C)[NH-].O.O.[Cl][Pt+2][Cl] :: No

# fetch the recorded call for O=C(O)c1ccc([S-])cc1.[Au+].c1ccc(CN2[CH-]N(Cc3ccccc3)C(c3ccccc3)=C2c2ccccc2)cc1 here
Yes

# fetch the recorded call for COc1ccc(-c2cn(-c3cccc(C(=O)/C=C/c4ccc(O)c(OC)c4)c3)c(=O)[nH]2)cc1 here
No

# fetch the recorded call for O=C(/C=C/c1cccc([N+](=O)[O-])c1)c1ccc(O)c(CN2CCN(c3cc4c(cc3F)c(=O)c(C(=O)O)cn4C3CC3)CC2)c1 here
No

# fetch the recorded call for O=C(O)CC(NC(=O)CP(=O)(O)O)C(=O)O.[NH-]C1CCCCC1[NH-].[Pt+2] (centres undefined) here
No
